Assay: Example 3 clinical trial: vortioxetine plasma levels and simulated AUC0-24
Type: in vivo
Settings: human, 10 mg/day, PBO IV + VOR oral, Day 0, 24 hours
Endpoint: concentration at 24 h (ng/mL)

In [3]: df
Out[3]:
                                   compound  recorded_measurement
0  Cc1ccc(Sc2ccccc2N2CCNCC2)c(C)c1 [PBO IV + VOR oral]                   2.6

---

Assay: Example 3 clinical trial: vortioxetine plasma levels and simulated AUC0-24
Type: in vivo
Conditions: human, other: intravenous infusion plus oral tablets, VOR IV + VOR oral, Day 14
Endpoint: concentration at 14 day

>>> df
                   compound_smiles                 endpoint  recorded_measurement
0  Cc1ccc(Sc2ccccc2N2CCNCC2)c(C)c1  concentration at 14 day            10.8 ng/mL
